Reference for the values: the supplement of paper PMC11061612

Test system: HCC70 (Breast Carcinoma)
Assay: combination Emax (second highest fraction inhibited in the dose matrix, 72 h); higher = more inhibition; extreme values may be limits of the assay
recorded.endpoint: combination Emax

| molecule | recorded.endpoint | recorded.measurement |
| --- | --- | --- |
| Cc1nc(-c2cn3c(n2)-c2ccc(-c4cnn(C(C)(C)C(N)=O)c4)cc2OCC3)n(C(C)C)n1 [Taselisib] + O=C(Nc1ccc2[nH]nc(-c3ccncc3)c2c1)[C@@H]1CCN(CC(=O)N2CCN(c3ccc(-c4ncccn4)cc3)CC2)C1 [SCH772984] (first compound max 10 µM, 7x7, partner max 5 µM) | combination Emax | 0.943 |
| COc1cccc(OCCCN)c1-c1cc(Nc2cnc(C#N)cn2)n[nH]1 [Prexasertib] + CN(C)CCCOc1ccc(-c2ccc3ncc4c(c3c2)n(C2CCOCC2)c(=O)n4C)cn1 [AZD0156] (first compound max 1 µM, 7x7, partner max 1 µM) | combination Emax | 0.922 |
| Cc1cc2ncnn2cc1Nc1ncc2c(n1)n(C1CCOCC1)c(=O)n2C [AZD7648] + O=C(c1cc(Cc2n[nH]c(=O)c3ccccc23)ccc1F)N1CCN(C(=O)C2CC2)CC1 [Olaparib] (first compound max 10 µM, 7x7, partner max 10 µM) | combination Emax | 0.178 |
| Cc1cc2ncnn2cc1Nc1ncc2c(n1)n(C1CCOCC1)c(=O)n2C [AZD7648] + CCN(CCO)CCCOc1ccc2c(Nc3cc(CC(=O)Nc4cccc(F)c4)[nH]n3)ncnc2c1 [AZD2811] (first compound max 10 µM, 7x7, partner max 1 µM) | combination Emax | 0.629 |
